- system under test: Thromboxane A2 receptor (Homo sapiens, UniProt P21731)
- Sequence (P21731 whole entry): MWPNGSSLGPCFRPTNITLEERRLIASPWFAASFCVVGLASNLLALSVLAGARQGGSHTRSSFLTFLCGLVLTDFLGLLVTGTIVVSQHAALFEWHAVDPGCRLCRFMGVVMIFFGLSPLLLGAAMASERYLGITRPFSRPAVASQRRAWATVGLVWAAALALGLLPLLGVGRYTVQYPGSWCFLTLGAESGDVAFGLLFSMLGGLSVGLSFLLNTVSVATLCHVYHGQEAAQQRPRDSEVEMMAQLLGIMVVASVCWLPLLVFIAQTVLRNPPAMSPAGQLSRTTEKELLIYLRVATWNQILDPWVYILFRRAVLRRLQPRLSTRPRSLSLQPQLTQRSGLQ
Give IC50 for every item shown.

Use the examples below as a reference point.
smiles repr: O=C(O)CCC/C=C\C[C@@H]1[C@H]2CC[C@H](C2)[C@H]1NS(=O)(=O)c1ccc(Oc2ccccc2)cc1
value observed: 1300 nM
//
smiles repr: CC1(C)[C@H]2C[C@H](C/C=C\CCCC(=O)O)[C@@H](NC(=O)c3csc4ccc(O)cc34)[C@@H]1C2
value observed: 96 nM
//
smiles repr: CC1(C)[C@H]2C[C@H](C/C=C\CCCC(=O)O)[C@@H](NC(=O)c3csc4ccc(F)cc34)[C@@H]1C2
value observed: 430 nM

Would you be so kind as to report IC50 for each listed record?
1. O=C(O)CCC/C=C\C[C@@H]1[C@H]2CC[C@H](C2)[C@H]1NS(=O)(=O)c1ccc2oc3ccccc3c2c1
2. CC1(C)[C@H]2C[C@H](C/C=C\CCCC(=O)O)[C@@H](NC(=O)c3csc4cc(O)ccc34)[C@@H]1C2

A.
["1700 nM", "410 nM"]

Q. Need IC50, item `COc1cc2c(cc1S(=O)(=O)N[C@@H]1[C@@H]3CC[C@@H](C3)[C@H]1C/C=C\CCCC(=O)O)oc1ccccc12`
A. > 10000 nM

----------
- system under test: Prostacyclin receptor (Homo sapiens)
- Sequence (P43119 whole entry): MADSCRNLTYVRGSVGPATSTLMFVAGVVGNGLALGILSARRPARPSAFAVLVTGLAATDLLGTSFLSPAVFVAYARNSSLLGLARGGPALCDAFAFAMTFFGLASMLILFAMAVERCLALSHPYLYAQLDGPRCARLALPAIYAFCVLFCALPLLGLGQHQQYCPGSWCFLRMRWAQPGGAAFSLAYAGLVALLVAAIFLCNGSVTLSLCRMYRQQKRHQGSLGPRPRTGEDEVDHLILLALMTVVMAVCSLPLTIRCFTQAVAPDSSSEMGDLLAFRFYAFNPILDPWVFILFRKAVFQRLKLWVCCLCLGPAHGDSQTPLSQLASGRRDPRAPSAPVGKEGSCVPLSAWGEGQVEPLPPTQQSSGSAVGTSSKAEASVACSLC
- assay method text: Inhibition of cAMP formation by carbacyclin in Prostaglandin I2 receptor (IP) assay
assay readout: IC50

Use the examples below as a reference point.
smiles repr: CC1(C)[C@H]2C[C@H](C/C=C\CCCC(=O)O)[C@@H](NC(=O)c3cccc4ccsc34)[C@@H]1C2
assay readout: IC50
value observed: > 10 µM
--
smiles repr: CC1(C)[C@H]2C[C@H](C/C=C\CCCC(=O)O)[C@@H](NC(=O)c3csc4ccc(F)cc34)[C@@H]1C2
assay readout: IC50
value observed: > 10 µM

Q. Need IC50, item `CC1(C)[C@H]2C[C@H](C/C=C\CCCC(=O)O)[C@@H](NC(=O)c3csc4cc(O)ccc34)[C@@H]1C2`
A. > 10 µM
